Reference source: PubChem BioAssay (NCI)

Provide the reported TGI of each item.
System: SNB-75 CNS
Experiment: NCI tumour cell line growth inhibition, 48 h

Request: Sample "CCN(CCCl)c1cc(CN(C)C)cc(NC(=O)c2ccc(C(=O)Nc3ccccc3)cc2)c1" — what was its TGI?
Response: 4.13 µM

Request: Sample "CN(C(=O)c1ccc(Cl)cc1)C(=S)N1CCN(c2ccccc2)CC1" — what was its TGI?
Response: > 100 µM

Request: Sample "CCSc1nc(C)nc2c1sc1nc3ccccc3n12" — what was its TGI?
Response: > 100 µM

Request: Sample "CO/N=C(\C(=O)[N-][n+]1cnn(CC(=O)O)c1)c1csc(N)n1" — what was its TGI?
Response: > 10 µM

Request: Sample "O=C(NNC(=O)c1c(Cl)c(Cl)c(Cl)c(Cl)c1-c1nc2ccccc2[nH]1)c1ccc(Cl)cc1" — what was its TGI?
Response: > 100 µM

====

Provide the reported TGI of each item.
System: HCT-15 colon
Assay: NCI tumour cell line growth inhibition, 48 h

Request: Sample "C[C@@]1(O)CCC[C@H]1n1c(=O)c(C(F)F)cc2cnc(NC3CCN(S(C)(=O)=O)CC3)nc21" — what was its TGI?
Response: 56.6 µM

Request: Sample C[C@H]1[C@H](C)CC[C@]2(C(=O)OC3OC(CO)C(O)C(O)C3O)CC[C@]3(C)C(=CC[C@@H]4[C@@]5(C)C[C@@H](O)[C@@H]6OC(=O)c7cc(O)c(O)c(O)c7-c7c(cc(O)c(O)c7O)C(=O)OC[C@]6(CO)[C@@H]5CC[C@]43C)[C@H]12 (stereo partly specified) — what was its TGI?
Response: > 100 µM

Request: Sample COc1ccc(NC(=O)CC(=O)N2N=C(C)C(N=Nc3ccc(C(=O)O)cc3)C2=O)cc1 (stereo unspecified) — what was its TGI?
Response: > 100 µM

Request: Sample "COC(=O)/C=C/c1cnc2c(c1)oc(=O)n2C" — what was its TGI?
Response: > 100 µM

Request: Sample "COc1ncc(C#CC(=O)c2ccccc2)c(OC)n1" — what was its TGI?
Response: 3.18 µM

Request: Sample "Nc1nc(CC2(O)CCCCC2)cc(-c2ccccc2)n1" — what was its TGI?
Response: > 75.5 µM

====

Provide the reported TGI of each item.
System: T-47D breast
Assay: NCI tumour cell line growth inhibition, 48 h

Request: Sample "CC(C)C[C@H](NC(=O)CCc1cccc2ccccc12)B(O)O" — what was its TGI?
Response: 4.23 µM

Request: Sample "COc1ccc2c(c1)C(=O)[C@@](Nc1ccc(C=O)cc1)(OC)[C@@](OC)(c1ccc([N+](=O)[O-])cc1)O2" — what was its TGI?
Response: > 10 µM

Request: Sample CS(=O)(=O)CCC(N)P(=O)(O)O (centres undefined) — what was its TGI?
Response: > 100 µM

Request: Sample "C=C1C(=O)O[C@H]2[C@H]1CC/C(Cn1cc(-c3ccsc3)nn1)=C\CC[C@@]1(C)O[C@@H]21" — what was its TGI?
Response: 5.52 µM

Request: Sample COc1cc(=O)oc(/C=C/C=C/C=C/C(C)=C\C2(C)OC(C)C(C)(O)C2O)c1C (centres undefined) — what was its TGI?
Response: > 100 µM

Request: Sample O=C1CSC(c2cccc(Oc3ccccc3)c2)N1c1cccc(Cl)c1Cl (centres undefined) — what was its TGI?
Response: > 100 µM

Request: Sample "COc1ccc(S(=O)(=O)Nc2ccc(-c3csc(N4C(=O)/C(=C/c5cccs5)N=C4c4ccccc4)n3)cc2)cc1Cl" — what was its TGI?
Response: 85 µM

Request: Sample "CO/N=C(\C(=O)[N-][n+]1cnn(CC(=O)O)c1)c1csc(N)n1" — what was its TGI?
Response: > 10 µM

Request: Sample "COc1ccc(-c2c3c(nc4[nH]c(=S)[nH]c(=S)c24)CCCC3)cc1OC" — what was its TGI?
Response: > 100 µM
